Values compiled from ChEMBL document CHEMBL4038306.

Test: AUClast in CD-1 mouse plasma at 0.1 mg/kg, ip administered as single dose after 24 hrs by UPLC-MS/MS method
Assay type: ADME, organism-based
OBSERVED PROPERTY: AUC(0-t) at 24 h

1. Cc1oc(-c2ccc(Cl)c(Cl)c2)nc1CN1CCC(C(=O)NCCCN2C[C@H](C)C[C@H](C)C2)CC1; 0.0494 µM·h

====

Assay: AUClast in CD-1 mouse liver at 0.1 mg/kg, ip administered as single dose after 24 hrs by UPLC-MS/MS method
Format: ADME, organism-based
OBSERVED PROPERTY: AUC(0-t) at 24 h (µM·h)

1) Cc1oc(-c2ccc(Cl)c(Cl)c2)nc1CN1CCC(C(=O)NCCCN2C[C@H](C)C[C@H](C)C2)CC1; 19.7
